TGI overview
System: A549 NSCLC
experimental-protocol: NCI tumour cell line growth inhibition, 48 h
quantity: TGI

compound=Cc1nn2c(/C=C3\C(=O)Nc4ccccc43)c(C)nc2s1 assay_system="A549 NSCLC" experimental_value="> 100 µM"
compound=CC[C@H](C)[C@H](NC(=O)c1nccn1C)C(=O)N(C)[C@H](C[C@@H](OC(C)=O)c1nc(C(=O)N[C@@H](Cc2ccccc2)C[C@H](C)C(=O)OC)cs1)C(C)C assay_system="A549 NSCLC" experimental_value="> 33.3 µM"
compound="CC1(O)C(=O)OC2CC([C@]3(O)CCC4[C@@H]5C[C@H]6O[C@]67[C@@H](O)C=CC(=O)[C@]7(C)C5CC[C@@]43C)C1(C)C2 (stereo partly drawn)" assay_system="A549 NSCLC" experimental_value="> 100 µM"
compound=Cc1nnc2sc(-c3ccc([N+](=O)[O-])o3)nn12 assay_system="A549 NSCLC" experimental_value="> 100 µM"
compound=S=c1[nH]nc(SCc2ccccc2Cl)c2[nH]cnc12 assay_system="A549 NSCLC" experimental_value="> 100 µM"
compound=COc1ccc(/C=C/c2cnc3ccccc3n2)cc1OC assay_system="A549 NSCLC" experimental_value="> 100 µM"
compound=CCOC(=O)/C(C#N)=C(N)/C(=N\Nc1cccc(C(F)(F)F)c1)C(=O)OCC assay_system="A549 NSCLC" experimental_value="> 100 µM"
compound="C[C@]12CC[C@H]3[C@@H](CCC4=C[C@@H](OC5OCC(OC6OC(CO)C(O)C(O)C6O)C(O)C5O)CC[C@@]43C=O)[C@@]1(O)CCC2C1=CC(=O)OC1 (stereo partly drawn)" assay_system="A549 NSCLC" experimental_value="0.484 µM"

###

Tested on: HCT-116 colon
experimental-protocol: NCI tumour cell line growth inhibition, 48 h
TGI overview
quantity: TGI (µM)

compound=N#Cc1c(-c2ccc(Cl)cc2)cc(-c2nc3ccccc3[nH]2)nc1N bound_sign== experimental_value=22.5
compound=[N-]=[N+]=Nc1c(Br)c(=O)[nH]c(=O)n1COCCO bound_sign=> experimental_value=100
compound=Cc1ccc(S(=O)(=O)N2CCN(CCO)CCN(S(=O)(=O)c3ccc(C)cc3)CCN(CCO)CC2)cc1 bound_sign== experimental_value=29.1
compound="O=C1OC2C=CC1C1(CCOC1=O)C2 (stereo not given)" bound_sign=> experimental_value=100
compound=CN(C)CCNc1c2c(c(NCCN(C)C)c3c(CO)c[nH]c13)C(=O)c1ccccc1C2=O bound_sign== experimental_value=10.9

###

Tested on: SK-MEL-2 melanoma
experimental-protocol: NCI tumour cell line growth inhibition, 48 h
TGI overview
quantity: TGI

compound=N[C@H](C(=O)O)[C@@H](Cl)CC(=O)O quantity=TGI experimental_value="> 100 µM"
compound=Cc1cccc2c1C(=O)[C@@](C)([C@]1(C)Nc3cccc(C)c3C1=O)N2 quantity=TGI experimental_value="> 100 µM"
compound=S=c1[nH]nc(SCc2ccccc2Cl)c2[nH]cnc12 quantity=TGI experimental_value="> 100 µM"
compound="CC1(C)CC2(C)OC(=N)C1(C#N)C2(C#N)C#N (stereo unspecified)" quantity=TGI experimental_value="31.7 µM"
compound=N#Cc1ncc(N2C(=O)C3(CCC3)N(c3ccc(OC4CCNCC4)nc3)C2=S)cc1C(F)(F)F quantity=TGI experimental_value="30.5 µM"
compound=CN(CCN(C)C(=O)CCn1ccc(=O)[nH]c1=O)C(=O)CCn1ccc(=O)[nH]c1=O quantity=TGI experimental_value="> 100 µM"
compound="COc1cc(-c2[o+]c3cc(O)cc(OC4OC(CO)C(O)C(O)C4O)c3cc2OC2OC(CO)C(O)C(O)C2O)cc(OC)c1O (stereo unspecified)" quantity=TGI experimental_value="> 100 µM"
compound=Cc1ccc(C)c2c1CCc1cc3ccccc3nc1-2 quantity=TGI experimental_value="> 100 µM"
compound="CCC1OC(/C(C)=C/C(C)/C=C/C2C(C)C2/C=C/C2OC(CC(=O)O)CC(O)C2O)CC=C1C (stereo unspecified)" quantity=TGI experimental_value="> 50 µM"
compound="COc1cc2c3c(c1OC)Oc1ccc(cc1)CC1c4c(cc(OC)c(OC)c4Oc4ccc(cc4)CC3N(C)CC2)CCN1C (stereo unspecified)" quantity=TGI experimental_value="50.6 µM"
compound=CCOC(=O)c1cc(-c2ccn(C(C)=O)c2)c(-c2cc(C)co2)[nH]1 quantity=TGI experimental_value="> 100 µM"
compound=CCCCN(CCCC)C(=O)C(=O)CC(=O)/C=C/c1ccccc1 quantity=TGI experimental_value="> 100 µM"
compound="Cc1cc(O)c2c(c1)C(=O)C(c1c(C)cc3c(c1O)C(=O)C1OC1C3=O)=CC2=O (stereo unspecified)" quantity=TGI experimental_value="24.6 µM"
compound=COc1ccc(S(=O)(=O)n2c3ccccc3n3ncc(-c4nnc(C)o4)c23)cc1 quantity=TGI experimental_value="82.1 µM"
compound=O=C(O)c1oc2cccc3c2c1CCC3 quantity=TGI experimental_value="> 100 µM"
compound=N#Cc1ccc2c(c1)C(=O)c1c-2n(CCCN=[N+]=[N-])c(=O)c2cc([N+](=O)[O-])ccc12 quantity=TGI experimental_value="> 50 µM"
compound=Cc1[nH]n(-c2ccccc2)c(=O)c1C(=O)c1ccccc1 quantity=TGI experimental_value="> 25 µM"
compound="Cc1ccc([N+](=O)[O-])cc1NC(=O)C(=O)C1CCC2=C(Sc3ccccc3N2)C1=O (stereo unspecified)" quantity=TGI experimental_value="> 100 µM"
compound="CC(C)=CCC/C(C)=C/[C@H]1OC(=O)CC12C[C@H](O)C=CC2=O (stereo partly specified)" quantity=TGI experimental_value="> 45.1 µM"
compound="COC(=O)C1[C@H](C(=O)OC)C1(Br)CBr (stereo partly specified)" quantity=TGI experimental_value="> 100 µM"
compound="C#CCOc1cccc(Nc2ncc3ncn(C4CCN(C(=O)CCl)C4)c3n2)c1 (stereo unspecified)" quantity=TGI experimental_value="> 62.5 µM"

###

Test system: SK-MEL-28 melanoma
experimental-protocol: NCI tumour cell line growth inhibition, 48 h
GI50 overview
quantity: GI50

molecule=CCC1(CC)C(=O)[N-]C(=O)[N-]C1=O.[Au+].[Au+].c1ccc([PH+](c2ccccc2)c2ccccc2)cc1.c1ccc([PH+](c2ccccc2)c2ccccc2)cc1 experimental_value="0.988 µM"
molecule="O=S1(=O)CC(Br)C(Br)C1 (stereo not given)" experimental_value="3.64 µM"
molecule=Cc1cc(Cl)ccc1NC(=O)NC(C)(C)COC(=O)Nc1cccc(Cl)c1 experimental_value="22.3 µM"
molecule=O=C(c1ccccc1)c1ccccc1C(=O)c1ccccc1 experimental_value="30.9 µM"
molecule="C#CCOc1cccc(Nc2ncc3ncn(C4CCN(C(=O)CCl)C4)c3n2)c1 (stereo not given)" experimental_value="> 62.5 µM"

###

System: KM12 colon
experimental-protocol: NCI tumour cell line growth inhibition, 48 h
TGI overview
quantity: TGI

molecule=O=C(NCc1cccnc1)C(=O)NCc1cccnc1 experimental_value="> 100 µM"
molecule=COC(=O)C1=C(c2cc(OC)c(OC)c(OC)c2)O[C@H](c2ccc3c(c2)OCO3)[C@H]1COC(C)=O experimental_value="> 100 µM"
molecule=CSc1ccccc1P(CCP(c1ccccc1SC)c1ccccc1SC)c1ccccc1SC experimental_value="> 100 µM"
molecule=O=C(Nc1cccc([N+](=O)[O-])c1)c1cc2ccccc2cc1O experimental_value="6.44 µM"
molecule="COc1cc2c3c(c1OC)Oc1ccc(cc1)CC1c4c(cc(OC)c(OC)c4Oc4ccc(cc4)CC3N(C)CC2)CCN1C (stereo not given)" experimental_value="> 100 µM"
molecule="C[C@@H](c1ccccc1)N(CC#N)C1CCC[C@H]1O (stereo not given in full)" experimental_value="> 100 µM"
molecule=Cc1ccc2c(=O)c(C(=O)N(CCO)CCO)c[nH]c2n1 experimental_value="> 100 µM"
molecule=Brc1ccc2c(c1)c(-c1nc(-c3c[nH]c4ncccc34)cs1)cn2CCCN1CCCCC1 experimental_value="3.48 µM"
molecule=O=C(NCc1ccccc1)c1c(O)c2ccccc2[nH]c1=O experimental_value="> 100 µM"
molecule=c1ccc(COc2cccc3cccnc23)cc1 experimental_value="> 100 µM"

###

TGI overview
Tested on: K-562 leukemia
experimental-protocol: NCI tumour cell line growth inhibition, 48 h
quantity: TGI

compound=O=C(Nc1nc(C23CC4CC(CC(C4)C2)C3)cs1)c1cc2cc([N+](=O)[O-])ccc2oc1=O quantity=TGI experimental_value="> 100 µM"
compound=c1ccc(CNc2ncnc3n[nH]nc23)cc1 quantity=TGI experimental_value="> 100 µM"
compound="CC(=O)[C@H]1CCC2[C@@H]3CC=C4C(O)C(OS(=O)(=O)O)CC[C@]4(C)C3CC[C@@]21C (stereo not given in full)" quantity=TGI experimental_value="> 100 µM"
compound=CN1N=Nc2c(C(F)(F)F)nn(-c3ccccc3)c2N(C)C1=O quantity=TGI experimental_value="> 100 µM"
compound=O=c1oc2ccccc2c(O)c1Cc1cccc(Cc2c(O)c3ccccc3oc2=O)c1 quantity=TGI experimental_value="> 100 µM"
compound=O=C(NCc1cccnc1)C(=O)NCc1cccnc1 quantity=TGI experimental_value="> 100 µM"
compound=FC(F)(F)c1cc(NC2=NCCN=C(Nc3cc(C(F)(F)F)cc(C(F)(F)F)c3)SS2)cc(C(F)(F)F)c1 quantity=TGI experimental_value="17.6 µM"
compound="CC1OC=CC(=O)C1O (stereo not given)" quantity=TGI experimental_value="> 100 µM"
compound=CCOC(=O)c1cc(-c2ccn(C(C)=O)c2)c(-c2cc(C)co2)[nH]1 quantity=TGI experimental_value="> 100 µM"
compound=O=C(NCc1ccccc1)c1c(O)c2ccccc2[nH]c1=O quantity=TGI experimental_value="> 100 µM"
